These entries and their values trace back to ChEMBL document CHEMBL2218924.

- System name: Serine/threonine-protein kinase 17A (Homo sapiens) (UniProt Q9UEE5)
- Sequence (Q9UEE5 whole entry): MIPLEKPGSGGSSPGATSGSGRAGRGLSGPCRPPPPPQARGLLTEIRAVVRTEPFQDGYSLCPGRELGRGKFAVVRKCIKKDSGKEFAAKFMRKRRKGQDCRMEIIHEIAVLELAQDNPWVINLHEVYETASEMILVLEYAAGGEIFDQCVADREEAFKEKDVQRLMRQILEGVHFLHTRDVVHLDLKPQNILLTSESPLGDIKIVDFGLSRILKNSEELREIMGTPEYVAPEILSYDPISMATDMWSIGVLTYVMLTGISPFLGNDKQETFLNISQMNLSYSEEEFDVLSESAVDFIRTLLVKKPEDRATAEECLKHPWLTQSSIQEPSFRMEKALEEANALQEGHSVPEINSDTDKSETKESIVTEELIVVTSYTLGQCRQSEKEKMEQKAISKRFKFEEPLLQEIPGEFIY
- Experimental conditions: at 1 µM
Readout label: residual activity (%)
Record the value in %, omitting the unit from your answer.

Item CC(C)(C)c1nc2c3ccc(F)cc3c3c(=O)[nH]ccc3c2[nH]1 was tested on Serine/threonine-protein kinase 17A (Homo sapiens) (UniProt Q9UEE5); the reported residual activity is 0

Item Cn1c2ccccc2c2c3c(c4c5ccccc5n(CCC#N)c4c21)CNC3=O was tested on Serine/threonine-protein kinase 17A (Homo sapiens) (UniProt Q9UEE5); the reported residual activity is 36

Item Cc1cc(C)c(/C=C2\C(=O)Nc3ccccc32)[nH]1 was tested on Serine/threonine-protein kinase 17A (Homo sapiens) (UniProt Q9UEE5); the reported residual activity is 26
